Source: the supplement of paper PMC9170038

system: K4 kissing-loop RNA reporter; assay: apparent KD of K4 kissing-loop reporter; higher = weaker reporter binding; conditions: Eterna round: R107; input ligand: arginine 13.2 mM
Record satisfied whenever apparent KD of K4 kissing-loop reporter is at 200 nM or higher; record not satisfied when lower.

Consider the worked cases shown below.
ACUACGAAGACGGCCGCCACUGAUAUUCGUAGAUCCAUCAUUACAUGAGUGAUGUUCAUGUAUAUCAGGACCGGGUCAAGAUGGU [KL-XTryp-B17 #analogue]    not satisfied
CGCGUGGGUUUGAGAGGGUUUGUGCGAAGUGAGGAUAUUUAGGGAGAAAGAAGGCACUAUAAAAUAUAGUGAUGUUAUAUAAGGG [SSFMNA.K]    satisfied
CCUAUCUCAUACGAUACCAGUCAAUGAGAUUUUAUCAAUGCCAUCACCGAGUGAUGUUCGGACCCUUGGCAGCGUAUGGGAUAGG [#02 K4 Theophylline B Exclusion]    not satisfied

[ask] Exam item: decide whether the reported apparent KD of K4 kissing-loop reporter for GGGCCUAUUGAUGCUGGAGUAAUUCUGGAAGGAGCGCUCAAAGGAGCAGGUAGGUCGCCAGUAUACAAGGGCAGUGAUGUUGCCC [Entimalati] is at least 200 nM.
[reply] not satisfied

[ask] Is the recorded value of apparent KD of K4 kissing-loop reporter equal to or greater than 200 nM for this sequence? GUUUGGCUCCGAAGACGGCAGUGGGAAAUAUAGGAUAUCUAGAAAUAGAGAAGGAUACUAGUGAUGUUAGUAUCGGAUAAAACAA
[reply] not satisfied

###

test system: MS2 coat protein; test: apparent KD of MS2 coat protein; higher = weaker reporter binding; conditions: Eterna round: R107; input ligand: theophylline 20 uM
readoutKind: apparent KD of MS2 coat protein (nM)
Supply the numeric figure in nM, leaving out any unit text.

Some entries whose results are on file:
AGAGCAUUGACGGCCGCCACUUAUGUCACAUGAGGAUCACCCAUGUGAUGGGUGAUAGCCCGGUUGAGGACCGGGUCAAUGCUCA [Omei Tryp SS B v6]    18.5
UGAUGGUACGGAAGGAGCGUGUAAGAACAAGAACAUGAGGAUCACCCAUGUAUUAAUUUAACACAGGUAGGUCGCCGAGUUAUUG [11.G]    26.7
UGCCCUGCGAGCGCUCGCAGGGCAGCGGAUACCAGCGAGGUCCAUCGCCCUUGGCAGCCGAACAUGAGGAUCACCCAUGUCGGUG [Same State - Theophylline A Attempt #9 (HarryS)]    18.9
AGCCACUCGAGUGAUCCUCACGAGUGGCUACGAGGACCGGUACGGCCGCCACUCGAAUUAACAUGAGGAUCACCCAUGUAAUAAU [Brourdmod03]    188

Item AAUAGCAUGAGGAUCACCCAUGUAAAAGAUACCAGAGUGAUGAUCCUCCCUUGGCAGCUUAACGCUGAUUGAUUACAAUCAGCGA ; assay system MS2 coat protein; apparent KD of MS2 coat protein reported as 97.8

The reported apparent KD of MS2 coat protein value, MS2 coat protein, for GUUGGACUUUCGGCCGCCACUGAGAGAGUCAUGUGAACAUGAGGAUCACCCAUGUAAUAUAUAUACAGGACCGGGAGGGUUGUAA [4.M] reads 22

###

test system: K4 kissing-loop RNA reporter; test: apparent KD of K4 kissing-loop reporter; higher = weaker reporter binding; settings: Eterna round: R107; input ligand: tryptophan 2.4 mM;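 further: bound reporter read as fluorescence of individual clusters on recovered sequencing chips by microscopy, with normalized cluster intensities fitted with a binding model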
Label T when apparent KD of K4 kissing-loop reporter is at or above 200 nM; otherwise label F.

Some solved entries appear below for comparison.
UUGUUUCCGACGGCCGCCACUGGUUUCUUUGUUGUAGUGAUGUUGCGGUGGAAUGAUAGCGUUAACAGGACCGGGUCGGUGAGAC [theeternabot_sameState_KL_Trp_B_42]    T
AGAUCUGUAACAGAUACCAGAGGACGAUGAUCGAACAGUGAUGUUAUCUGUUAGUCGUCGCUCCCUUGGCAGCUGUUACAGAUCA [Omei KL Theo B SS B v4]    F
ACUGGGUUGACGAAAGUCAACAAAAGAGAAGGAGCGCACGAAAGUGCAGGUAGGUCGCUCAUCCAGUGAUGUUGGAUCAUCCAGA [#SwitchBubble 17 #K4Late]    T
AUGGUUGUCGUAGGAUAUGUAGGAUAUUCCUAUAGCAGUGAUGUUGCUAAUAUCAAUGGAAGAAGGACAGAAGGACGAUAACCAC [KL-SSFMN-B3 #analogue #DoubleAptamer]    F

[ask] I'd appreciate it if you could say whether UCCUGUUGUCAGCCACGAAAGUGGAUUGAUACCAGAGUCGAAAGACUCCCUUGGCAGCGAGUGAUGUUCGCAGCAGGUAAAUAAA [MatMod 4 - Jieux - Exclusion - Theophylline A] has apparent KD of K4 kissing-loop reporter at least equal to 200 nM.
[reply] F

###

system: MS2 coat protein; test: apparent KD of MS2 coat protein; designed switch direction (-1 OFF switch, 1 ON switch): -1; higher = weaker reporter binding; conditions: input ligand: microRNA oligo, concentration not stated
apparent KD of MS2 coat protein overview
Lab book: enter the figure in nM, no units written.

Consider the worked cases shown below.
CUGCUGGAGCUUUGCUUUGGUCGUACAUGAGGAUCACCCAUGUAGGAUAUGGUAAGAUUUGCUUGCUAGAAGGAUAGAGUGGUC [salish99_ExNG3_r04_611] (Eterna round: R96, puzzle: Exclusion NG 3)    78.2
GGGCUCGGUCUUCCGGCUGGGUCCACAUGAGGAUCACCCAUGUAGGAUAUCCCGGCUGCCGGCCGGGAGAAGGGCGUGUGUUUC [-39.8, -36.9 kcal, 14% A] (Eterna round: R96, puzzle: Exclusion NG 3)    13.3
CUUCACCCACCAGAGCUCACCCACAUACCAGCUCUGGUGACAUGAGGAUCACCCAUGUUUUUUGCCCGUCUUAUCUU [Intibima] (Eterna round: R96, puzzle: Sensor v3, turn-off variant 2)    218
AAACGGCGGAUCGUGGCUUUUUGCUCGUCUUGUGCUUCGACAUGAGGAUCACCCAUGUGGUGGUGAUCCGUUGUAAA [Grok-var2-16 mod JAL] (Eterna round: R96, puzzle: Sensor v3, turn-off variant 2)    12.4
GCAGCAUAGAUAACAUACUGUUACAUGAGGAUCACCCAUGUAUAGGAUAUGGUCUGGAUUACAGGCCAGAAGGGUACAAGCUGC [Eli exng3 - 022] (Eterna round: R96, puzzle: Exclusion NG 3)    9.84

So for CCGCUCCGUGUAGGAUAUCGUUGUACCCUGCGGCGAGAAGGACAUGAGGAUCACCCAUGUAUGUUAUUAUCACGCGUGGCGCAC [Design 71] (Eterna round: R96, puzzle: Exclusion NG 1) , the logged apparent KD of MS2 coat protein turned out to be 15.8

AAUAUACAUGUAGGAUAUCUGCACGUUUAGUGCAGAGAAGGACAUGAGGAUCACCCAUGUAAUUAAGAUCAAUUAUUAAAUAUU [ENG1/3-B2] (Eterna round: R96, puzzle: Exclusion NG 1) yielded apparent KD of MS2 coat protein of 39.6

Lab book: apparent KD of MS2 coat protein of UUUUUAUAUGAAGGAUAUACUUAACAUGAGGAUCACCCAUGUGGUGUUGUGAGUGAGUGAGUUUAGUAGAAGGUCAAGUAUUUU [JMF's solution 8] (Eterna round: R96, puzzle: Exclusion NG 2) noted as 265

So for AGUACUAACACGAAAGUGUUAGUUCAAUAAGCUUGUGAAACAUGAGGAUCACCCAUGUCCUCAUAAGCUCGUCUUAU [salish99_TOv2_r3_040] (Eterna round: R96, puzzle: Sensor v3, turn-off variant 2) , the logged apparent KD of MS2 coat protein turned out to be 461

###

system: MS2 coat protein; assay: apparent KD of MS2 coat protein, switch ON state; designed switch direction (-1 OFF switch, 1 ON switch): -1; higher = weaker reporter binding; conditions: FMN input: 0 or 200 uM; Eterna round: R93 (includes R88 designs)
Please note: T applies when apparent KD of MS2 coat protein is 50 nM or greater, and F applies otherwise.

Take a look at these entries with their results.
CUCUUGUCAGGAUAUGUAAGAAAAGAAGAGAAAGAAAAGAAACAGAAGGGACAUGAGGAUCACCCAUGUAAGAA [EteRNA is fun!]    T
AGGUGGUCAGGAUAUGCGUGAAGAAUAAAACAAAUAACAACGCAGAAGGGACAUGAGGAUCACCCAUGUCACCA [May 52]    F
AGAAAGUUAGGAUAUACAGAUAAAAAAACGAAAAAAAAUCUGUAGAAGGAACAUGAGGAUCACCCAUGUAAAGA [Mat - Exclusion 4 - Mayanna - D105]    F
AAAACGUCAGGAUAUACAGAAGAGAUCACGAAAAAAAAAAAACAUGAGGAUCACCCAUGUAGAAGGGACAAAAA [Ex2 Malc#3]    T
AGCUAGUCAGGAUAUACGAACACGUCAAAAGACGUGAAGGGACAUGAGGAUCACCCAUGUAGAAGGGACUAGCA [Mat - Exclusion 2 - JL mod - D24]    F

Attention now turns to another entry.
[ask] Does UUUAUGUGAGGAUAUGUACAGAAAAAAAAGGGUGUAACUGUACAGAAGGCACAUGAGGAUCACCCAUGUGCAUU [EX4 382: S S Pseudoknot 7] have a reported apparent KD of MS2 coat protein of at least 50 nM?
[reply] F
